experiment: KARI assay of purified S. exigua KARI and variants with NADPH (Examples 6-9)
Assay type: biochemical
condition description: cofactor NADPH
endpoint label: U/mg NADPH (specific activity) (U/mg)

| molecule | measured number |
| --- | --- |
| Se1_KARI^13G6: S. exigua KARI variant G60V, I95A (protein, UniProt D0WGK0 1-342, looked up, variant G60V I95A) Ketol-acid reductoisomerase …: MSVKTKEKEMAVTILYEQDVDPKVIQGLKVGIIGYGSQGHAHALNLMDSGVDVRVGLREVSSSWKTAEEAGLKVTDMDTAAEEADVIMVLVPDEAQPKVYQEHIAAHLKAGNTLAFAHGFNIHYGYIVPPEDVNVIMCAPKGPGHIVRRQFTEGSGVPDLACVQQDATGNAWDIVLSYCWGVGGARSGIIKATFAEETEEDLFGEQAVLCGGLVELVKAGFETLTEAGYPPELAYFECYHEMKMIVDLMYESGIHFMNYSISNTAEYGEYYAGPKVINEQSREAMKEILKRIQDGSFAQEFVDDCNNGHKRLLEQREAINTHPIETTGAQIRSMFSWIKKED | 0.37 |
